Recorded values, source patent US20200392228A1.

assay_target: T1, mouse MAdCAM expressed on cells (mouse, UniProt Q61826 22-405)
T1 construct: whole, on cells
T1 sequence (looked up): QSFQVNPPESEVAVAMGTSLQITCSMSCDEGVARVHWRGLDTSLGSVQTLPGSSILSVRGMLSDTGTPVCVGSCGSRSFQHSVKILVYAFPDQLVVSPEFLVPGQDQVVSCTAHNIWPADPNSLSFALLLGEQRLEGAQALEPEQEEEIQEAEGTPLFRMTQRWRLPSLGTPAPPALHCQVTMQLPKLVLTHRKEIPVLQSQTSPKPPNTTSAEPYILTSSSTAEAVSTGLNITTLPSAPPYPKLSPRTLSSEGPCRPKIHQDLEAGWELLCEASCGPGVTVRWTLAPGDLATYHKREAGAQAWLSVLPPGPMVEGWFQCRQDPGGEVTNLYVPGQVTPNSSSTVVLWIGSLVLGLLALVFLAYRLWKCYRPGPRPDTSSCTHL
procedure_summary: cell binding

binder: MAdCAM antibody Clone ID 79 of Table 7 (IgG) (antibody, V domains shown, IgG format) VH: EVQLLESGGGLVKPGGSLRLSCAASGFTFDDYAMHWVRQAPGKGLEWVASITSSSAFIDYAASVKGRFTISRDDSKNTLYLQMNSLKTEDTAVYYCARERVDWNSYFDLWGRGTLVTVSS VL: EIVMTQSPATLSVSPGERATLSCRASQGISNSYLAWYQQKPGQAPRLLIYGASTRATGIPARFSGSGSGTEFTLTISSLQSEDFAVYYCQQYYTYPPTFGPGTKVDIK
binding result: binds

binder: MAdCAM antibody Clone ID 14 of Table 7 (IgG) (antibody, V domains shown, IgG format) VH: QVQLVQSGAEVKKPGSSVKVSCKASGYTFTNYYMHWVRQAPGQGLEWMGGIIPIVDGVKYAQKFQGRVTITADESTSTAYMELSSLRSEDTAVYYCAKGQFTGNYYYGMDYWGQGTLVTVSS VL: DIQMTQSPSSLSASVGDRVTITCQANQDISNYLNWYQQKPGKAPKLLIYRASKLEAGVPSRFSGSGSGTDFTLTISSLQPEDFATYYCQQSSEIPYSFGQGTKVEIK
binding result: no binding

binder: MAdCAM antibody Clone ID 61 of Table 7 (IgG) (antibody, V domains shown, IgG format) VH: QVQLVQSGAEVKKPGASVKVSCKASGDTFTGYYIHWVRQAPGQGLEWMGWINPNSGGTNYAQKFQGRVTMTRDTSTSTVYMELSSLRSEDTAVYYCARSGLWLGSYYGMDVWGQGTLVTVSS VL: DIQMTQSPSSLSASVGDRVTITCRASQTISIWLAWYQQKPGKAPKLLIYDASTLQSGVPSRFSGSGSGTDFTLTISSLQPEDFATYYCQQYSSYPLTFGQGTKVEIK
binding result: no binding
